Molecular target: human MET ECD mutant A (mutations 1, 2, 3) (human) (UniProt P08581)
Assay: ELISA, MET ECD mutant in solid phase, mAb 0-50 nM
Catalogue of binders with associated % binding (EMAX) compared to WT MET
Dear colleague, please return just the value in %, with no unit written.

Ask: GET /values?readout=% binding (EMAX) compared to WT MET&item= chimeric llama-human IgG1 mAb 71A3 (antibody, V domains shown) VH: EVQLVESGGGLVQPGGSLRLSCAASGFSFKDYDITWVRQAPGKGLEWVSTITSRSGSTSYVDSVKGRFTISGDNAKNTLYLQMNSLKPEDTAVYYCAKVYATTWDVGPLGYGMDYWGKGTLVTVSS VL: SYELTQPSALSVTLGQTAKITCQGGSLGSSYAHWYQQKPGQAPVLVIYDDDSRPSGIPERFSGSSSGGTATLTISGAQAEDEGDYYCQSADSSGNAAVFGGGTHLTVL
Result: 117

Ask: GET /values?readout=% binding (EMAX) compared to WT MET&item= chimeric llama-human IgG1 mAb 71G2 (antibody, V domains shown) VH: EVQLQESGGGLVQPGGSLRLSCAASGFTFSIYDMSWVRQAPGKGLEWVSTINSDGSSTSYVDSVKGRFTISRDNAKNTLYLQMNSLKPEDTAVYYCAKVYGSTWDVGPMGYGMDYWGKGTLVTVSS VL: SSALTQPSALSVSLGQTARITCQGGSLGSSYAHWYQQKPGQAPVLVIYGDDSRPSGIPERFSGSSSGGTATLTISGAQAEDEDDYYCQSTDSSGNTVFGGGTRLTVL
Result: 92.1

Ask: GET /values?readout=% binding (EMAX) compared to WT MET&item= chimeric llama-human IgG1 mAb 71D6 (antibody, V domains shown) VH: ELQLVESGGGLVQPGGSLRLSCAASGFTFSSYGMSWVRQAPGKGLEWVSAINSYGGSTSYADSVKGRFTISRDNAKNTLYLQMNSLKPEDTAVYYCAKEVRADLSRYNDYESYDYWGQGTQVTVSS VL: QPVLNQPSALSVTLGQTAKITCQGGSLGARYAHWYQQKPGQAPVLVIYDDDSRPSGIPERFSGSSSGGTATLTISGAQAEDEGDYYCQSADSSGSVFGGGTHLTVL
Result: 103

Ask: GET /values?readout=% binding (EMAX) compared to WT MET&item= chimeric llama-human IgG1 mAb 71D4 (antibody, V domains shown) VH: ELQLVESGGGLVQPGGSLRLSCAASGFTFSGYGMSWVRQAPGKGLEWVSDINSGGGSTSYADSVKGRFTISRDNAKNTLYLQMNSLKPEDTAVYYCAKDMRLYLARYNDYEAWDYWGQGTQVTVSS VL: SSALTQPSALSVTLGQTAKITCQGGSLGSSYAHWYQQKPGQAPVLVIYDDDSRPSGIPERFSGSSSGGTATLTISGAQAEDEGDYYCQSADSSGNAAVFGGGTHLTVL
Result: 114

Ask: GET /values?readout=% binding (EMAX) compared to WT MET&item= chimeric llama-human IgG1 mAb 71C3 (antibody, V domains shown) VH: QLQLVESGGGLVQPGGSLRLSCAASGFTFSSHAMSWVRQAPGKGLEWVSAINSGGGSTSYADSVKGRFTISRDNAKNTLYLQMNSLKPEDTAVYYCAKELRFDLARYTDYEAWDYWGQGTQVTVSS VL: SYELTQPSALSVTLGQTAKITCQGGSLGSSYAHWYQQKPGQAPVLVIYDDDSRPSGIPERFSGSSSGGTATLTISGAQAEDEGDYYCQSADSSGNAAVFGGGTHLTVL
Result: 99.8
